assay: In vivo pharmacokinetics (PK) in mice dosed PO; details: mouse, in vivo, po, 8 mg/kg, read-out: Tmax
property-label: Tmax (h)
Report the value in h with no unit label.

[ask] What does the record list as Tmax for CN(C)C(=O)Oc1cccc2c1C(=O)c1cccc(S(N)(=O)=O)c1C2=O [LLL12B] ?
[reply] 7.68

* * *

experiment: In vivo pharmacokinetics (PK) in mice dosed PO; details: mouse, in vivo, 8 mg/kg, read-out: Bioavailability (F)
property-label: bioavailability (%)
Report the value in % with no unit label.

[ask] What does the record list as bioavailability for CN(C)C(=O)Oc1cccc2c1C(=O)c1cccc(S(N)(=O)=O)c1C2=O [LLL12B] ?
[reply] 47.7

meta.source: paper PMC7985203
